// provenance: paper PMC5452035

Target: T1, Rtt103p CID Arg116Glu mutant (yeast, UniProt Q05543 3-131, Arg116Glu)
T1 sequence (looked up): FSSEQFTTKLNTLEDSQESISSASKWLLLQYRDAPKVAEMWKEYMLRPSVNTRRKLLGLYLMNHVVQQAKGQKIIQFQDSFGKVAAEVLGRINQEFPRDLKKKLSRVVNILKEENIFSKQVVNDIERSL
Assay: fluorescence polarisation; fluorescence anisotropy; Rtt103p CID titrated into 10 nM N-terminally FAM-labelled CTD peptide; 10°C; 35 mM KH2PO4, 100 mM KCl, pH 6.8; 1:1 model with non-specific binding (DynaFit)
Conditions: both partners purified
Non-standard residues stand in square brackets, D forms with d. No end group written: not given here. pT = C[C@@H](OP(=O)(O)O)[C@H](N)C(=O)O; FAM = 5,6-carboxyfluorescein
endpoint.name: Kd
In your response, the unit should come after the numeric value.

-- ask Tell us which Kd value is on record for {FAM}-PSYSP[pT]SPSYSPTSPS (consensus heptad repeats of the C-terminal domain of the largest subunit of RNA polymerase II (Rpb1); residues named by heptad position and repeat letter (P6a ... S7c); also called pThr4-CTD; FAM-pThr4 CTD; source: synthetic peptide (JPT, Berlin, or Clonestar, Brno)) [FAM-PSYSP(pT)SPSYSPTSPS]
-- reply 107 µM
